Each item that follows carries a reported EC50.
target: Melanocortin receptor 5 (Homo sapiens); assay: Increase in intracellular cAMP in CHO cells expressing human melanocortin receptor 5.; assay type: functional, cell-based; conditions: cho
Sequence (P33032 whole entry): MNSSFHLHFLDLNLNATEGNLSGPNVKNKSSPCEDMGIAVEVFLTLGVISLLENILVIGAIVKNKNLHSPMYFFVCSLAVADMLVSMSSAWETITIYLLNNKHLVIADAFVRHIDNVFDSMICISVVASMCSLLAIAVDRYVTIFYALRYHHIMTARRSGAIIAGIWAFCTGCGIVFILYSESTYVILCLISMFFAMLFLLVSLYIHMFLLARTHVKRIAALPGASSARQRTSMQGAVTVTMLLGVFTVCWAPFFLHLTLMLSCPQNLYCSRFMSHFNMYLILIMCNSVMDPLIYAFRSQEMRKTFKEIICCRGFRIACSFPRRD

Solved entries (count: 4):
CCC1CC(=O)N[C@H](Cc2ccc3ccccc3c2)C(=O)N[C@@H](CCCN=C(N)N)C(=O)N[C@@H](Cc2c[nH]c3ccccc23)C(=O)N[C@H](C(N)=O)CCCCNC1=O (stereo in doubt; 18); 220 nM
N=C(N)NCCC[C@@H]1NC(=O)[C@@H](Cc2ccc3ccccc3c2)NC(=O)[C@H](Cc2c[nH]cn2)NCC(=O)CC[C@@H](C(N)=O)NC(=O)[C@H](Cc2c[nH]c3ccccc23)NC1=O; > 5000 nM
CCC1CC(=O)N[C@H](Cc2ccc3ccccc3c2)C(=O)N[C@@H](CCCN=C(N)N)C(=O)N[C@@H](Cc2c[nH]c3ccccc23)C(=O)N[C@H](C(N)=O)CCCCNC1=O (stereo in doubt; 17); 240 nM
CC(=O)N[C@H]1CSSC[C@@H](C(N)=O)NC(=O)CNC(=O)[C@H](Cc2c[nH]c3ccccc23)NC(=O)[C@H](CCCN=C(N)N)NC(=O)[C@@H](Cc2ccc3ccccc3c2)NC(=O)[C@H](Cc2c[nH]cn2)NC(=O)[C@H](CCC(=O)O)NC1=O; 0.22 nM

Could you now look at the following compound, please?
EC50 reported for this compound N=C(N)NCCC[C@@H]1NC(=O)[C@@H](Cc2ccc3ccccc3c2)NC(=O)CCC(=O)NC[C@@H](C(N)=O)NC(=O)[C@H](Cc2c[nH]c3ccccc23)NC1=O : > 5000 nM

###

Entries with their measured Ki, system Melanocortin receptor 5 (Homo sapiens):
Give just the number in nM; leave the unit off.

Solved entries (count: 2):
N=C(N)NCCC[C@@H]1NC(=O)[C@@H](Cc2ccc3ccccc3c2)NC(=O)[C@H](Cc2c[nH]cn2)NC(=O)CCC(=O)NC[C@@H](C(N)=O)NC(=O)[C@H](Cc2c[nH]c3ccccc23)NC1=O; 65
CCC1CC(=O)N[C@H](Cc2ccc3ccccc3c2)C(=O)N[C@@H](CCCN=C(N)N)C(=O)N[C@@H](Cc2c[nH]c3ccccc23)C(=O)N[C@H](C(N)=O)CCCCNC1=O (stereo in doubt; 18); 400

// assay Melanocortin receptor 5 (Homo sapiens), entry N=C(N)NCCC[C@@H]1NC(=O)[C@@H](Cc2ccc3ccccc3c2)NC(=O)CCC(=O)NCCCC[C@H](C(N)=O)NC(=O)[C@H](Cc2c[nH]c3ccccc23)NC1=O , Ki value = 4900

// assay Melanocortin receptor 5 (Homo sapiens), entry N=C(N)NCCC[C@@H]1NC(=O)[C@@H](Cc2ccc3ccccc3c2)NC(=O)CCC(=O)NCC[C@@H](C(N)=O)NC(=O)[C@H](Cc2c[nH]c3ccccc23)NC1=O , Ki value = 2700

###

Peptide text beside a SMILES is read from it.
Entries with their measured pKi, system UniProt P41968:
Please treat pKi as minus the base-10 logarithm of the molar concentration.

// assay UniProt P41968, entry N=C(N)NCCC[C@@H]1NC(=O)[C@@H](Cc2ccc3ccccc3c2)NCC(=O)CC[C@@H](C(N)=O)NC(=O)[C@H](Cc2c[nH]c3ccccc23)NC1=O , pKi value = 5.23

// assay UniProt P41968, entry N=C(N)NCCC[C@@H]1NC(=O)[C@@H](Cc2ccc3ccccc3c2)NC(=O)CCC(=O)NC[C@@H](C(N)=O)NC(=O)[C@H](Cc2c[nH]c3ccccc23)NC1=O , pKi value = 5.82

// assay UniProt P41968, entry N=C(N)NCCC[C@@H]1NC(=O)[C@@H](Cc2ccc3ccccc3c2)NC(=O)CCC(=O)NCCCC[C@H](C(N)=O)NC(=O)[C@@H](Cc2c[nH]c3ccccc23)NC1=O , pKi value = 5.23

// assay UniProt P41968, entry CC(=O)N[C@H]1CSSC[C@@H](C(=O)N2CCC[C@H]2C(=O)N2CCC[C@H]2C(=O)N[C@@H](CCCCN)C(=O)N[C@@H](CC(=O)O)C(N)=O)NC(=O)CNC(=O)[C@H](Cc2c[nH]c3ccccc23)NC(=O)[C@H](CCCNC(=N)N)NC(=O)[C@@H](Cc2ccc3ccccc3c2)NC(=O)[C@H](Cc2c[nH]cn2)NC(=O)[C@H](CCC(=O)O)NC1=O (HELM PEPTIDE1{[ac].C.E.H.[O=C([C@@H](Cc1ccc2ccccc2c1)N[*:1])[*:2]].R.W.G.C.P.P.K.D.[am]}$PEPTIDE1,PEPTIDE1,2:R3-9:R3$$$V2.0) , pKi value = 7.60

// assay UniProt P41968, entry N=C(N)NCCC[C@@H]1NC(=O)[C@@H](Cc2ccc3ccccc3c2)NC(=O)CCC(=O)NCC[C@@H](C(N)=O)NC(=O)[C@H](Cc2c[nH]c3ccccc23)NC1=O , pKi value = 5.52
